Tested on: 782815-120-R-J1-PDC complex spheroid viability
measurement protocol: Anticancer human tumor 782815-120-R-J1-PDC patient-derived colon adenocarcinoma cell line growth inhibition [RAS]; active = viability on the fitted dose curve at most 10% of control; inactive = the rest
measurement parameters: second compound 0.000949 µM; first compound 0.0949 µM
In this exercise, the only acceptable responses are active, inactive

Solved cases below.
>  <compound>
CC1(C)CCC(Nc2ncc(C(F)(F)F)c(-c3c[nH]c4c(P(C)(C)=O)c(C#N)ccc34)n2)CN1 (centres undefined) + CCn1c(-c2cccnc2C(C)OC)c2c3cc(ccc31)N1CCOC(CC(NC(=O)C(C(C)C)N(C)C(=O)C3(F)CCN(C(=O)C#CC(C)(C)N(C)C)CC3)C(=O)N3CCCC(N3)C(=O)OCC(C)(C)C2)C1

>  <qualitative label>
inactive

$$$$
>  <compound>
CC1(C)CCC(Nc2ncc(C(F)(F)F)c(-c3c[nH]c4c(P(C)(C)=O)c(C#N)ccc34)n2)CN1 (centres undefined) + CCn1c(-c2cc(N3CCN(C)CC3)cnc2C(C)OC)c2c3cc(ccc31)-c1csc(n1)CC(NC(=O)C1CC1C)C(=O)N1CCCC(N1)C(=O)OCC(C)(C)C2

>  <qualitative label>
inactive

$$$$
>  <compound>
CCc1c2c(nc3ccc(O)cc13)-c1cc3c(c(=O)n1C2)COC(=O)[C@]3(O)CC + CCn1c(-c2cc(N3CCN(C)CC3)cnc2C(C)OC)c2c3cc(ccc31)-c1csc(n1)CC(NC(=O)C1CC1C)C(=O)N1CCCC(N1)C(=O)OCC(C)(C)C2

>  <qualitative label>
active

$$$$

Incoming: Assay result, entry CCc1c2c(nc3ccc(O)cc13)-c1cc3c(c(=O)n1C2)COC(=O)[C@]3(O)CC + CCn1c(-c2cccnc2C(C)OC)c2c3cc(ccc31)N1CCOC(CC(NC(=O)C(C(C)C)N(C)C(=O)C3(F)CCN(C(=O)C#CC(C)(C)N(C)C)CC3)C(=O)N3CCCC(N3)C(=O)OCC(C)(C)C2)C1 — outcome?
Outgoing: active

----------
System: 782815-120-R-J1-PDC complex spheroid viability
measurement protocol: Anticancer human tumor 782815-120-R-J1-PDC cell line growth inhibition [RAS];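 note: spheroids exposed to compounds for 7 days before reading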;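 for viability, T/C: 100% = DMSO vehicle control viability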
measurement parameters: second compound 0.1 µM; first compound 10 µM; stronger effect = lower value
Rule for this label: Criterion met means viability, T/C is less than 80%; Criterion not met means viability, T/C is at least 80%.

>  <compound>
CCC(CC)c1cc(NC2CCC(N)C2)n2nccc2n1 (stereo not given) + C#Cc1c(F)ccc2cc(O)cc(-c3ncc4c(N5CC6CCC(C5)N6)nc(OCC56CCCN5CC(F)C6)nc4c3F)c12

>  <assayed system>
782815-120-R-J1-PDC complex spheroid viability

>  <qualitative label>
Criterion met

$$$$

Incoming: Is viability, T/C of NC1c2ccccc2OC12CCN(c1cnc3c(N4CCCc5ncccc54)n[nH]c3n1)CC2 (stereo not given) + C#Cc1c(F)ccc2cc(O)cc(-c3ncc4c(N5CC6CCC(C5)N6)nc(OCC56CCCN5CC(F)C6)nc4c3F)c12 strictly below 80%?
Outgoing: Criterion met

Incoming: viability, T/C under 80%? Item: CC(=O)OC12COC1CC(O)C1(C)C(=O)C(O)C3=C(C)C(OC(=O)C(O)C(NC(=O)OC(C)(C)C)c4ccccc4)CC(O)(C(OC(=O)c4ccccc4)C21)C3(C)C (stereo not given) + C=CC(=O)N1CCN(c2nc(OCC3CCCN3C)nc3c(F)c(-c4nc(N)cc(C)c4C(F)(F)F)c(Cl)cc23)C(C)C1
Outgoing: Criterion met

Incoming: Problem: For the compound CC(C)NCC(C(=O)N1CCN(c2ncnc3c2C(C)CC3O)CC1)c1ccc(Cl)cc1 (stereo not given) + C#Cc1c(F)ccc2cc(O)cc(-c3ncc4c(N5CC6CCC(C5)N6)nc(OCC56CCCN5CC(F)C6)nc4c3F)c12 , is viability, T/C under 80%?
Outgoing: Criterion not met

Incoming: Would you kindly verify if viability, T/C of CC(C)NCC(C(=O)N1CCN(c2ncnc3c2C(C)CC3O)CC1)c1ccc(Cl)cc1 (stereo not given) + C=CC(=O)N1CCN(c2nc(OCC3CCCN3C)nc3c(F)c(-c4nc(N)cc(C)c4C(F)(F)F)c(Cl)cc23)C(C)C1 is strictly less than 80%?
Outgoing: Criterion not met

Incoming: Input CC1(O)CCCC1n1c(=O)c(C(F)F)cc2cnc(NC3CCN(S(C)(=O)=O)CC3)nc21 (stereo not given) + C#Cc1c(F)ccc2cc(O)cc(-c3ncc4c(N5CC6CCC(C5)N6)nc(OCC56CCCN5CC(F)C6)nc4c3F)c12 ; condition: viability, T/C strictly below 80%. Does it hold?
Outgoing: Criterion met

----------
Test system: 782815-120-R-J1-PDC complex spheroid viability
measurement protocol: Anticancer human tumor 782815-120-R-J1-PDC cell line growth inhibition [RAS];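 note: spheroids exposed to compounds for 7 days before reading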;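 for viability, T/C: 100% = DMSO vehicle control viability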
measurement parameters: second compound 0.03 µM; first compound 0.000949 µM; stronger effect = lower value
reported property: viability, T/C (%)
Give bare numbers, in %.

Please review the following examples before continuing.
>  <compound>
CC1(C)CCC(Nc2ncc(C(F)(F)F)c(-c3c[nH]c4c(P(C)(C)=O)c(C#N)ccc34)n2)CN1 (centres undefined) + CCn1c(-c2cc(N3CCN(C)CC3)cnc2C(C)OC)c2c3cc(ccc31)-c1csc(n1)CC(NC(=O)C1CC1C)C(=O)N1CCCC(N1)C(=O)OCC(C)(C)C2

>  <assayed system>
782815-120-R-J1-PDC complex spheroid viability

>  <viability, T/C, %>
18.7

$$$$
>  <compound>
CCc1c2c(nc3ccc(O)cc13)-c1cc3c(c(=O)n1C2)COC(=O)[C@]3(O)CC + CCn1c(-c2cccnc2C(C)OC)c2c3cc(ccc31)N1CCOC(CC(NC(=O)C(C(C)C)N(C)C(=O)C3(F)CCN(C(=O)C#CC(C)(C)N(C)C)CC3)C(=O)N3CCCC(N3)C(=O)OCC(C)(C)C2)C1

>  <assayed system>
782815-120-R-J1-PDC complex spheroid viability

>  <viability, T/C, %>
91.9

$$$$
>  <compound>
CCc1c2c(nc3ccc(O)cc13)-c1cc3c(c(=O)n1C2)COC(=O)[C@]3(O)CC + CCn1c(-c2cc(N3CCN(C)CC3)cnc2C(C)OC)c2c3cc(ccc31)-c1csc(n1)CC(NC(=O)C1CC1C)C(=O)N1CCCC(N1)C(=O)OCC(C)(C)C2

>  <assayed system>
782815-120-R-J1-PDC complex spheroid viability

>  <viability, T/C, %>
19.6

$$$$

Query compound follows.
Incoming: Identify measured viability, T/C associated with CC1(C)CCC(Nc2ncc(C(F)(F)F)c(-c3c[nH]c4c(P(C)(C)=O)c(C#N)ccc34)n2)CN1 (centres undefined) + CCn1c(-c2cccnc2C(C)OC)c2c3cc(ccc31)N1CCOC(CC(NC(=O)C(C(C)C)N(C)C(=O)C3(F)CCN(C(=O)C#CC(C)(C)N(C)C)CC3)C(=O)N3CCCC(N3)C(=O)OCC(C)(C)C2)C1
Outgoing: 86.1

----------
So I've got a bunch of compounds here, and I need their viability, T/C values.
Test system: 782815-120-R-J1-PDC complex spheroid viability
measurement protocol: Anticancer human tumor 782815-120-R-J1-PDC cell line growth inhibition [RAS];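 note: spheroids exposed to compounds for 7 days before reading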;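 for viability, T/C: 100% = DMSO vehicle control viability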
measurement parameters: second compound 0.316 µM; first compound 3.16 µM; stronger effect = lower value

Some solved cases for reference:
>  <compound>
CC1(O)CCCC1n1c(=O)c(C(F)F)cc2cnc(NC3CCN(S(C)(=O)=O)CC3)nc21 (centres undefined) + C#Cc1c(F)ccc2cc(O)cc(-c3ncc4c(N5CC6CCC(C5)N6)nc(OCC56CCCN5CC(F)C6)nc4c3F)c12

>  <viability, T/C>
65.6%

$$$$
>  <compound>
CC1(O)CCCC1n1c(=O)c(C(F)F)cc2cnc(NC3CCN(S(C)(=O)=O)CC3)nc21 (centres undefined) + C=CC(=O)N1CCN(c2nc(OCC3CCCN3C)nc3c(F)c(-c4nc(N)cc(C)c4C(F)(F)F)c(Cl)cc23)C(C)C1

>  <viability, T/C>
53.4%

$$$$
>  <compound>
CC(C)NCC(C(=O)N1CCN(c2ncnc3c2C(C)CC3O)CC1)c1ccc(Cl)cc1 (centres undefined) + C=CC(=O)N1CCN(c2nc(OCC3CCCN3C)nc3c(F)c(-c4nc(N)cc(C)c4C(F)(F)F)c(Cl)cc23)C(C)C1

>  <viability, T/C>
96.7%

$$$$

// next entry
Incoming: Give the measured viability, T/C for CC(=O)OC12COC1CC(O)C1(C)C(=O)C(O)C3=C(C)C(OC(=O)C(O)C(NC(=O)OC(C)(C)C)c4ccccc4)CC(O)(C(OC(=O)c4ccccc4)C21)C3(C)C (centres undefined) + C#Cc1c(F)ccc2cc(O)cc(-c3ncc4c(N5CC6CCC(C5)N6)nc(OCC56CCCN5CC(F)C6)nc4c3F)c12
Outgoing: 31.9%

----------
Tested on: 782815-120-R-J1-PDC complex spheroid viability
measurement protocol: Anticancer human tumor 782815-120-R-J1-PDC cell line growth inhibition [RAS];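 note: spheroids exposed to compounds for 7 days before reading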
measurement parameters: curve of first compound; second compound 0.00949 µM
Assignment: determine reported IC50 for the given compounds.

Recorded IC50, per entry:
>  <compound>
CC1(C)CCC(Nc2ncc(C(F)(F)F)c(-c3c[nH]c4c(P(C)(C)=O)c(C#N)ccc34)n2)CN1 (stereo not drawn) + CCn1c(-c2cccnc2C(C)OC)c2c3cc(ccc31)N1CCOC(CC(NC(=O)C(C(C)C)N(C)C(=O)C3(F)CCN(C(=O)C#CC(C)(C)N(C)C)CC3)C(=O)N3CCCC(N3)C(=O)OCC(C)(C)C2)C1

>  <IC50>
67.2 nM

$$$$
>  <compound>
CC1(C)CCC(Nc2ncc(C(F)(F)F)c(-c3c[nH]c4c(P(C)(C)=O)c(C#N)ccc34)n2)CN1 (stereo not drawn) + CCn1c(-c2cc(N3CCN(C)CC3)cnc2C(C)OC)c2c3cc(ccc31)-c1csc(n1)CC(NC(=O)C1CC1C)C(=O)N1CCCC(N1)C(=O)OCC(C)(C)C2

>  <IC50>
< 0.949 nM

$$$$
>  <compound>
NC1c2ccccc2OC12CCN(c1cnc3c(N4CCCc5ncccc54)n[nH]c3n1)CC2 (stereo not drawn) + CCn1c(-c2cccnc2C(C)OC)c2c3cc(ccc31)N1CCOC(CC(NC(=O)C(C(C)C)N(C)C(=O)C3(F)CCN(C(=O)C#CC(C)(C)N(C)C)CC3)C(=O)N3CCCC(N3)C(=O)OCC(C)(C)C2)C1

>  <IC50>
> 10000 nM

$$$$
>  <compound>
CCC(CC)c1cc(NC2CCC(N)C2)n2nccc2n1 (stereo not drawn) + CCn1c(-c2cc(N3CCN(C)CC3)cnc2C(C)OC)c2c3cc(ccc31)-c1csc(n1)CC(NC(=O)C1CC1C)C(=O)N1CCCC(N1)C(=O)OCC(C)(C)C2

>  <IC50>
< 31.6 nM

$$$$
>  <compound>
C[C@@H](NC(=O)c1ncnc(N)c1Cl)c1ncc(C(=O)Nc2cc(C(F)(F)F)c(Cl)cn2)s1 + CCn1c(-c2cc(N3CCN(C)CC3)cnc2C(C)OC)c2c3cc(ccc31)-c1csc(n1)CC(NC(=O)C1CC1C)C(=O)N1CCCC(N1)C(=O)OCC(C)(C)C2

>  <IC50>
< 31.6 nM

$$$$
>  <compound>
CC(Nc1ccc2c(c1)OCCn1cc(N3C(=O)OCC3C(F)F)nc1-2)C(N)=O (stereo not drawn) + CCn1c(-c2cc(N3CCN(C)CC3)cnc2C(C)OC)c2c3cc(ccc31)-c1csc(n1)CC(NC(=O)C1CC1C)C(=O)N1CCCC(N1)C(=O)OCC(C)(C)C2

>  <IC50>
< 31.6 nM

$$$$

Hi team, please reply with IC50 for each item in this list.
1. CC(C)n1nc(-c2ccc3oc(N)nc3c2)c2c(N)ncnc21 + CCn1c(-c2cccnc2C(C)OC)c2c3cc(ccc31)N1CCOC(CC(NC(=O)C(C(C)C)N(C)C(=O)C3(F)CCN(C(=O)C#CC(C)(C)N(C)C)CC3)C(=O)N3CCCC(N3)C(=O)OCC(C)(C)C2)C1
2. O=C(c1ccc(F)c(F)c1Nc1ccc(I)cc1F)N1CC(O)([C@@H]2CCCCN2)C1 + CCn1c(-c2cccnc2C(C)OC)c2c3cc(ccc31)N1CCOC(CC(NC(=O)C(C(C)C)N(C)C(=O)C3(F)CCN(C(=O)C#CC(C)(C)N(C)C)CC3)C(=O)N3CCCC(N3)C(=O)OCC(C)(C)C2)C1

Outgoing:
["> 100 nM", "45.5 nM"]

// provenance: PubChem BioAssay AID2060887
